- Tested on: HIV-1 (HIVIIIB) replication in MT2 cell line
- protocolSummary: HIV-1 replication in MT2 cell line with and without 30% human serum (viral RT activity in supernatant)
- Format: cell-based
- conditionNotes: Human immunodeficiency virus 1, MT2 cells, without human serum, average IC50 if tested more than once, read-out: MT2 (HIVIIIB) IC50 range
- Protocol: HIV-1 Replication in MT2 cell line with and without 30% human serum: The cells are infected at a Multiciplicity of Infection (MOI) of 0.5 for 3 h and then washed twice with complete media to remove residual virus. […] The level of HIV-1 replication is determined at days 5 after infection by the presence of viral RT activity in harvested supernatant fluid. The IC50 and IC90 values for the virus replication are determined by using GRAPHPAD PRISM software. […]
pIC50: −log10 of the molar value.
readout: pIC50

Give the reported pIC50 for this compound. CCNC(=O)N[C@@]12CC[C@]3(C)[C@H](CC[C@@H]4[C@@]5(C)CC[C@H](OC(=O)CC(C)(C)C(=O)O)C(C)(C)[C@@H]5CC[C@]43C)C1=C(C(C)C)C(=O)C2
> 6.70

Give the value of pIC50 reported for the following: CC(C)C1=C2[C@H]3CC[C@@H]4[C@@]5(C)CC[C@H](OC(=O)CC(C)(C)C(=O)O)C(C)(C)[C@@H]5CC[C@@]4(C)[C@]3(C)CC[C@@]2(NC(=O)c2ccc(F)cc2)CC1=O
> 6.70

====

- System: HIV-1 (HIVIIIB) replication in MT2 cell line
- protocolSummary: HIV-1 replication in MT2 cell line with and without 30% human serum (viral RT activity in supernatant)
- Assay type: cell-based
- conditionNotes: Human immunodeficiency virus 1, MT2 cells, without human serum, average IC50 if tested more than once, read-out: MT2 (HIVIIIB) IC50 range
readout: IC50

Below: 4 compounds and their reported IC50.
[[record]]
compound = "CC(C)C1=C2C3CCC4[C@@]5(C)CC[C@H](OC(=O)CC(C)(C)C(=O)O)C(C)(C)C5CC[C@@]4(C)[C@]3(C)CC[C@@]2(NC(=O)c2cncnc2)CC1=O (stereo partly shown)"
assayresult = "< 199 nM"

[[record]]
compound = "CC(C)C1=C2C3CCC4[C@@]5(C)CC[C@H](OC(=O)CC(C)(C)C(=O)O)C(C)(C)C5CC[C@@]4(C)[C@]3(C)CC[C@@]2(NC(=O)Nc2cccnc2)CC1=O (stereo partly shown)"
assayresult = "< 199 nM"

[[record]]
compound = "CC(C)C1=C2[C@H]3CC[C@@H]4[C@@]5(C)CC[C@H](OC(=O)CC(C)(C)C(=O)O)C(C)(C)[C@@H]5CC[C@@]4(C)[C@]3(C)CC[C@@]2(NC(=O)CC(C)(C)C(=O)O)CC1=O"
assayresult = "< 199 nM"

[[record]]
compound = "CC(C)C1=C2[C@H]3CC[C@@H]4[C@@]5(C)CC[C@H](OC(=O)CC(C)(C)C(=O)O)C(C)(C)[C@@H]5CC[C@@]4(C)[C@]3(C)CC[C@@]2(NC(=O)OC(C)(C)C)CC1=O"
assayresult = "< 199 nM"


Name the recorded IC50 of the item CC(C)C1=C2C3CCC4[C@@]5(C)CC[C@H](OC(=O)CC(C)(C)C(=O)O)C(C)(C)C5CC[C@@]4(C)[C@]3(C)CC[C@@]2(NC(=O)OC2CCN(C(=O)OC(C)(C)C)CC2)CC1=O (stereo partly shown) in your answer.
< 199 nM

For the compound CC(C)C1=C2[C@H]3CC[C@@H]4[C@@]5(C)CC[C@H](OC(=O)CC(C)(C)C(=O)O)C(C)(C)[C@@H]5CC[C@@]4(C)[C@]3(C)CC[C@@]2(NC(=O)c2ccccc2F)CC1=O , give its measured IC50 value.
< 199 nM

Please give measured IC50 of the following entry: CC(C)C1=C2[C@H]3CC[C@@H]4[C@@]5(C)CC[C@H](OC(=O)CC(C)(C)C(=O)O)C(C)(C)[C@@H]5CC[C@@]4(C)[C@]3(C)CC[C@@]2(NC(=O)c2cccnc2)CC1=O
< 199 nM

====

// reported pIC50 for each item listed
- Test system: HIV-1 (HIVIIIB) replication in MT2 cell line
- protocolSummary: HIV-1 replication in MT2 cell line with and without 30% human serum (viral RT activity in supernatant)
- Format: cell-based
- conditionNotes: Human immunodeficiency virus 1, MT2 cells, without human serum, average IC50 if tested more than once, read-out: MT2 (HIVIIIB) IC50 range
pIC50: −log10 of the molar value.

Past entries and their recorded results:
[[record]]
structurestring = "CC(C)C1=C2[C@H]3CC[C@@H]4[C@@]5(C)CC[C@H](OC(=O)[C@H]6CCC[C@@H](C(=O)O)C6)C(C)(C)[C@@H]5CC[C@@]4(C)[C@]3(C)CC[C@@]2(NC(=O)OC(C)(C)C)CC1=O"
measuredtarget = "HIV-1 (HIVIIIB) replication in MT2 cell line"
assayresult = "< 6.00"

[[record]]
structurestring = "CC(C)C1=C2[C@H]3CC[C@@H]4[C@@]5(C)CC[C@H](OC(=O)CC(C)(C)C(=O)O)C(C)(C)[C@@H]5CC[C@@]4(C)[C@]3(C)CC[C@@]2(NC(=O)N2CCNCC2)CC1=O"
measuredtarget = "HIV-1 (HIVIIIB) replication in MT2 cell line"
assayresult = "> 6.70"


Let's switch to this compound now.
Input CC(C)C1=C2[C@H]3CC[C@@H]4[C@@]5(C)CC[C@H](OC(=O)CC(C)(C)C(=O)O)C(C)(C)[C@@H]5CC[C@@]4(C)[C@]3(C)CC[C@@]2(NS(C)(=O)=O)CC1=O , output reported pIC50.
> 6.70

====

Recorded measurements of IC50, one per entry
- Tested on: HIV-1 (HIVIIIB) replication in MT2 cell line
- protocolSummary: HIV-1 replication in MT2 cell line with and without 30% human serum (viral RT activity in supernatant)
- Assay type: cell-based
- conditionNotes: Human immunodeficiency virus 1, MT2 cells, without human serum, average IC50 if tested more than once, read-out: MT2 (HIVIIIB) IC50 range

# count of solved cases: 2
[[record]]
compound = "CC(C)C1=C2[C@H]3CC[C@@H]4[C@@]5(C)CC[C@H](OC(=O)CC(C)(C)C(=O)O)C(C)(C)[C@@H]5CC[C@@]4(C)[C@]3(C)CC[C@@]2(NC(=O)NCc2ccccc2)CC1=O [17-1]"
readout = "IC50"
assayresult = "< 199 nM"

[[record]]
compound = "CC(C)NC(=O)N[C@@]12CC[C@]3(C)C(CCC4[C@@]5(C)CC[C@H](OC(=O)CC(C)(C)C(=O)O)C(C)(C)C5CC[C@]43C)C1=C(C(C)C)C(=O)C2 (stereo partly drawn) [17-4]"
readout = "IC50"
assayresult = "< 199 nM"


Write IC50 of CC(C)C1=C2[C@H]3CC[C@@H]4[C@@]5(C)CC[C@H](OC(=O)CC(C)(C)C(=O)O)C(C)(C)[C@@H]5CC[C@@]4(C)[C@]3(C)CC[C@@]2(NC(=O)N2CCN(C(=O)OC(C)(C)C)CC2)CC1=O [17-14] ; system used: HIV-1 (HIVIIIB) replication in MT2 cell line
< 199 nM

Reference source for all entries: patent US8269026B2
